Provide the reported clearance of each item.
# Measurement Protocol: in vivo
# Conditions Used: rat, plasma, iv, 3 mg/kg
# Description: Plasma clearance in rat at 3 mg/kg, iv
Kindly answer with a numeric value in mL/min/kg, unit omitted.

Looking for the measured clearance of CCCSc1nc(N[C@@H]2C[C@H]2c2ccc(F)c(F)c2)c2nnn([C@@H]3C[C@H](OCCO)[C@@H](O)[C@H]3O)c2n1 [TICAGRELOR] , can you help?
21

Do the same for CCCCNc1nc(SCCC)nc2c1nnn2[C@@H]1C[C@H](C(N)=O)[C@@H](O)[C@H]1O please
21

Try CCCSc1nc(N[C@@H]2C[C@H]2c2ccccc2)c2nnn([C@@H]3C[C@H](C(=O)O)[C@@H](O)[C@H]3O)c2n1 next.
16

Then what about the molecule CCCSc1nc(N[C@@H]2C[C@H]2c2ccccc2)c2nnn([C@@H]3C[C@H](CO)[C@@H](O)[C@H]3O)c2n1 ?
16

Same for OCCO[C@H]1C[C@@H](n2nnc3c(N[C@@H]4C[C@H]4c4ccc(F)c(F)c4)nc(SCCC(F)(F)F)nc32)[C@H](O)[C@@H]1O
12

Again, but for CCCCNc1nc(SCCC)nc2c1nnn2[C@@H]1C[C@H](C(=O)O)[C@@H](O)[C@H]1O
30

Another molecule to look at: CCCSc1nc(N[C@@H]2C[C@H]2c2ccccc2)c2nnn([C@@H]3C[C@H](C(N)=O)[C@@H](O)[C@H]3O)c2n1
20

Another molecule to look at: OC[C@H]1C[C@@H](n2nnc3c(N[C@@H]4C[C@H]4c4ccc(F)c(F)c4)nc(SCCC(F)(F)F)nc32)[C@H](O)[C@@H]1O
11

---

For each entry below, report its half-life value.
# Measurement Protocol: Half life in dog at 1 mg/kg, iv
# Type: ADME, organism-based, Canis lupus familiaris
# Design: dose 1 mg/kg, route intravenous
# Conditions Used: in vivo

Given the compound OC[C@H]1C[C@@H](n2nnc3c(N[C@@H]4C[C@H]4c4ccc(F)c(F)c4)nc(SCCC(F)(F)F)nc32)[C@H](O)[C@@H]1O , what is its reported half-life?
4.8 h

Further, for CCCSc1nc(N[C@@H]2C[C@H]2c2ccc(F)c(F)c2)c2nnn([C@@H]3C[C@H](OCCO)[C@@H](O)[C@H]3O)c2n1 ?
2.9 h

---

# Measurement Protocol: in vivo
# Conditions Used: rat, in vivo, iv, 3 mg/kg
Reported Property: clearance (mL/min/kg)
Write it as a number; the unit mL/min/kg goes unstated.

For the compound shown here, CCCCNc1nc(SCCC)nc2c1nnn2[C@@H]1C[C@H](CO)[C@@H](O)[C@H]1O , give the reported clearance.
29

---

# Measurement Protocol: Oral bioavailability in dog at 1 mg/kg
# Format: ADME, organism-based, Canis lupus familiaris
# Conditions Used: in vivo
Reported Property: bioavailability

Query (molecule): CCCSc1nc(N[C@@H]2C[C@H]2c2ccc(F)c(F)c2)c2nnn([C@@H]3C[C@H](OCCO)[C@@H](O)[C@H]3O)c2n1 ; field requested: bioavailability
72%

Next record, please: OC[C@H]1C[C@@H](n2nnc3c(N[C@@H]4C[C@H]4c4ccc(F)c(F)c4)nc(SCCC(F)(F)F)nc32)[C@H](O)[C@@H]1O
59%

---

# Measurement Protocol: Volume of distribution at steady state in rat at 3 mg/kg, iv
# Format: ADME, organism-based
# Parameters: dose 3 mg/kg, route intravenous
# Conditions Used: in vivo, read-out: Vdss
Reported Property: Vd (L/kg)
Provide only the numeric value, understood in L/kg.

// query Vd value for entry CCCCNc1nc(SCCC)nc2c1nnn2[C@@H]1C[C@H](C(N)=O)[C@@H](O)[C@H]1O
1.6

What about this compound? CCCSc1nc(N[C@@H]2C[C@H]2c2ccc(F)c(F)c2)c2nnn([C@@H]3C[C@H](OCCO)[C@@H](O)[C@H]3O)c2n1
3.8

What do you have for OC[C@H]1C[C@@H](n2nnc3c(N[C@@H]4C[C@H]4c4ccc(F)c(F)c4)nc(SCCC(F)(F)F)nc32)[C@H](O)[C@@H]1O ?
2.7

// query: CCCSc1nc(N[C@@H]2C[C@H]2c2ccccc2)c2nnn([C@@H]3C[C@H](CO)[C@@H](O)[C@H]3O)c2n1
2.9

Now give it for OCCO[C@H]1C[C@@H](n2nnc3c(N[C@@H]4C[C@H]4c4ccc(F)c(F)c4)nc(SCCC(F)(F)F)nc32)[C@H](O)[C@@H]1O too.
2.1

Now the same for CCCSc1nc(N[C@@H]2C[C@H]2c2ccccc2)c2nnn([C@@H]3C[C@H](C(N)=O)[C@@H](O)[C@H]3O)c2n1
2.2

How about this compound: CCCCNc1nc(SCCC)nc2c1nnn2[C@@H]1C[C@H](CO)[C@@H](O)[C@H]1O
2.3

How about this compound: CCCCNc1nc(SCCC)nc2c1nnn2[C@@H]1C[C@H](C(=O)O)[C@@H](O)[C@H]1O
0.4

Another compound to look at: CCCSc1nc(N[C@@H]2C[C@H]2c2ccccc2)c2nnn([C@@H]3C[C@H](C(=O)O)[C@@H](O)[C@H]3O)c2n1
0.5
